- System: c-Src;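 note: 11-residue human phosphosite peptides and single-mutation variants displayed on the E. coli surface, counted by deep sequencing, each peptide's frequency after selection divided by its frequency in the unselected input library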;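 note: frequency after pTyr selection over input frequency; kinase dosed for 20-30% of maximal phosphorylation in three min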
- test-name: phosphorylation enrichment, bacterial display (enrichment ratio); higher = better substrate or ligand; peptides without Tyr show the background
measured-parameter: phosphorylation enrichment

[[record]]
biosequence = "WAFNLYDINKY [KCNIP3_Y174_D179Y]"
test_result = 1.57

[[record]]
biosequence = "NHFKIYNLFAE [PTEN_Y68_C71Y_YF]"
test_result = 1.64

[[record]]
biosequence = "RGNKEYKEEKR [LENG1_Y96_E97K]"
test_result = 0.398

[[record]]
biosequence = "ILTFKYLQKPM [KIT_Y547_YF]"
test_result = 0.605

[[record]]
biosequence = "KRRGPYEMSPS [PLPP7_Y172_T174M]"
test_result = 0.45

[[record]]
biosequence = "MKKMHYVDPDR [ST3GAL5_Y99_H104R]"
test_result = 0.322

[[record]]
biosequence = "GCRSKYVRLWG [KCNQ1_Y184_G186R]"
test_result = 0.495

[[record]]
biosequence = "HSLLQYGGSAN [ANK1_Y624_R619H]"
test_result = 0.357

[[record]]
biosequence = "LDPIQYSKHPP [SQSTM1_Y433_T430P]"
test_result = 0.303

[[record]]
biosequence = "RLQAAYNLVKR [PFKM_Y103_R100Q]"
test_result = 0.526

[[record]]
biosequence = "LGGSPYPRVPV [FGFR1_Y701_G703R]"
test_result = 0.426

[[record]]
biosequence = "LITILYIGFLG [KCNQ1_Y267_T265I]"
test_result = 1.24

[[record]]
biosequence = "LTDLRYKVSGP"
test_result = 0.255

[[record]]
biosequence = "LIHTKYPQLLP [AHCY_Y143]"
test_result = 0.379

[[record]]
biosequence = "RKKEEYKMALY [F8_Y1990]"
test_result = 0.546

[[record]]
biosequence = "CKLCQYYLDHL [ATRX_Y1849_Y1847C]"
test_result = 1.57

[[record]]
biosequence = "QPAGNYSLSSV [ARFGAP3_Y473]"
test_result = 0.798

[[record]]
biosequence = "QMRLKYSQSDL [SMC1A_Y714]"
test_result = 0.481

[[record]]
biosequence = "WSQAMYPDLGP [STARD8_Y330_R327Q]"
test_result = 0.47

[[record]]
biosequence = "HFGNNYRDVLQ [MACC1_Y803_YF]"
test_result = 0.65

[[record]]
biosequence = "DHAGEYGAEAL [HBA1_Y25_A20D]"
test_result = 0.405

[[record]]
biosequence = "HVSISYDIPPT [GAB1_Y307]"
test_result = 0.478

[[record]]
biosequence = "IKIMGYFIRTI [IDS_Y490_S491F]"
test_result = 0.424

[[record]]
biosequence = "CTSIHYNFMCN [TP53_Y234_T231S_YF]"
test_result = 0.447

[[record]]
biosequence = "EDDPEYMRLRN [ADD2_Y31]"
test_result = 0.509

[[record]]
biosequence = "KNNSIYVVANI [VNN1_Y134]"
test_result = 0.705

[[record]]
biosequence = "SSENPCATIKD [MEGF10_Y1030_Y1030C]"
test_result = 0.465

[[record]]
biosequence = "DRLASYLDKMR [KRT17_Y98_V102M]"
test_result = 0.459

[[record]]
biosequence = "MRALIYNSSTV [PLEKHA7_Y243_A248V]"
test_result = 0.77

[[record]]
biosequence = "FDSPFYRDSLP [TSC1_Y508]"
test_result = 0.451

[[record]]
biosequence = "YISLIYTNYEA [GSTP1_Y109]"
test_result = 4.21

[[record]]
biosequence = "IVAREYFSEAD [CAMK2A_Y106_YF]"
test_result = 0.491

[[record]]
biosequence = "TGVWDYIHVVD [GALE_Y241_R239W]"
test_result = 0.471

[[record]]
biosequence = "IDFARYWHGDD [MMP11_Y162]"
test_result = 0.387

[[record]]
biosequence = "LFCVHYFHRTF [SRD5A2_Y91]"
test_result = 1.14

[[record]]
biosequence = "FGCGMYSHLQG [LGR4_Y848_D844G_YF]"
test_result = 2.53

[[record]]
biosequence = "EFQLPYFNMVP [BMPR1A_Y457_YF]"
test_result = 2.12

[[record]]
biosequence = "RIVEIYSRRLQ [GCH1_Y175]"
test_result = 0.803

[[record]]
biosequence = "YTHSDYQYGQR [PKP2_Y166_S169G]"
test_result = 0.439

[[record]]
biosequence = "HPWPQYTTRAP [FNDC1_Y1281]"
test_result = 0.561

[[record]]
biosequence = "KLIETYSSKNF [PLP1_Y50_F51S_YF]"
test_result = 0.451

[[record]]
biosequence = "AVAFLYYKSIG [ADGRL4_Y301_V300L]"
test_result = 0.459

[[record]]
biosequence = "WFKKFYDANYD [MAPRE2_Y158]"
test_result = 0.364

[[record]]
biosequence = "IPPRRYFCSGV [STAMBP_Y36_R38C]"
test_result = 0.393

[[record]]
biosequence = "SGTFQYIIAKF [FOXL2_Y83_I80T_YF]"
test_result = 0.366

[[record]]
biosequence = "FESPRYLQVRI [FANCA_Y488_H492R]"
test_result = 0.437

[[record]]
biosequence = "LSAPWYLNRIS [HEXA_Y421]"
test_result = 0.362

[[record]]
biosequence = "EEHIPCTHMNG [INSR_Y1361_Y1361C]"
test_result = 0.497

[[record]]
biosequence = "GITTGYLVLKE [DNMT3B_Y588_A585T]"
test_result = 0.371

